Source listed as patent US20260217698A1.

pIC50: −log10 of the molar value.
Quick note: these are pIC50 numbers for system: EGFR (Homo sapiens, UniProt P00533)
Sequence (P00533 669-1210 limits assumed): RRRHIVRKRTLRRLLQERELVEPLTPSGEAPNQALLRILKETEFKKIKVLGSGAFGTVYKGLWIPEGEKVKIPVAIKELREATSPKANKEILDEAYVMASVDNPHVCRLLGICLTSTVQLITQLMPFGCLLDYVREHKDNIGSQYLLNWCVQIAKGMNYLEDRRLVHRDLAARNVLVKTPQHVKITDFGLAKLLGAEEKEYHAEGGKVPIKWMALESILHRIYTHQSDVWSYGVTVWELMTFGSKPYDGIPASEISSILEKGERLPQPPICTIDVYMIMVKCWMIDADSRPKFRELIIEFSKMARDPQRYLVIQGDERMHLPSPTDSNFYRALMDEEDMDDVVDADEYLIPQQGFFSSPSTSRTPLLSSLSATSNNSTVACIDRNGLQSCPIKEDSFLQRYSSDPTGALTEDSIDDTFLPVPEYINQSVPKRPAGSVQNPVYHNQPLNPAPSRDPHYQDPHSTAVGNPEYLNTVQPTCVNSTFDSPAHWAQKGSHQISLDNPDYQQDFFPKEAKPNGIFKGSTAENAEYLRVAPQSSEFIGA

Here's what some known entries look like.
> print(dat)
                            substancesmiles  measuredendpoint  reportedvalue
1  CN1CCN(CCNC(=O)Nc2snc(OCc3cccc(C(=O)NC4CC4)c3)c2C(N)=O)CC1             pIC50         ≤ 4.22
2  COc1cc(OC)c(F)c(COc2nsc(NC(=O)NCCCCN3CCCC3)c2C(N)=O)c1F             pIC50         < 4.22

Summary: COc1cc(COc2nsc(NC(=O)NCCCCN3CC[C@H](F)C3)c2C(N)=O)cc(OC)c1 , EGFR (Homo sapiens, UniProt P00533), pIC50 = < 4.22

###

System: melanin
Assay: Binding capacity of compounds to melanin
Format: in vitro ADME, cuttlefish (Sepia officinalis)
Settings: cuttlefish (Sepia officinalis), melanin suspension (1 mg/mL); 1 mg/mL melanin in PBS pH 7.4, 2 μM compound, 2 h at 37° C.; read-out: Fu % (percentage of free drug)
measuredEndpoint: fraction unbound at 2 h, 2 μM

Here's what some known entries look like.
> print(dat)
                            substancesmiles  assayedsystem               measuredendpoint  reportedvalue
1  NC(=O)c1c(OCc2cc3c(cc2F)CCO3)nsc1NC(=O)NCCN1CC[C@@H](F)C1        melanin  fraction unbound at 2 h, 2 μM         0.0632
2  CCNC(=O)c1ccc(F)c(COc2nsc(NC(=O)NCCC3CCN(CCF)CC3)c2C(N)=O)c1        melanin  fraction unbound at 2 h, 2 μM         0.0362
3  NC(=O)c1c(OCc2cccc(C(=O)NC3CC3)c2)nsc1NC(=O)NCCCCN1CCCC1        melanin  fraction unbound at 2 h, 2 μM         0.0183
4  CCN1CCC(CCNC(=O)Nc2snc(OCc3ccc4c(c3)OCC4)c2C(N)=O)CC1        melanin  fraction unbound at 2 h, 2 μM         0.0311

A. NC(=O)c1c(OCc2cc(F)cc(C(=O)NC3CC3)c2)nsc1NC(=O)NCCCCN1CCCC1
B. NC(=O)c1c(OCc2cc(C(=O)NC3CC3)ccc2F)nsc1NC(=O)NCCC1CCN(CCF)CC1
-- ask Please tell me which of the two, A or B , has the higher reported fraction unbound at 2 h, 2 μM value. // respond with label for picked entry
-- reply A

###

Biological target: VEGFR2 (Homo sapiens)
Sequence (P35968 790-1356 limits assumed): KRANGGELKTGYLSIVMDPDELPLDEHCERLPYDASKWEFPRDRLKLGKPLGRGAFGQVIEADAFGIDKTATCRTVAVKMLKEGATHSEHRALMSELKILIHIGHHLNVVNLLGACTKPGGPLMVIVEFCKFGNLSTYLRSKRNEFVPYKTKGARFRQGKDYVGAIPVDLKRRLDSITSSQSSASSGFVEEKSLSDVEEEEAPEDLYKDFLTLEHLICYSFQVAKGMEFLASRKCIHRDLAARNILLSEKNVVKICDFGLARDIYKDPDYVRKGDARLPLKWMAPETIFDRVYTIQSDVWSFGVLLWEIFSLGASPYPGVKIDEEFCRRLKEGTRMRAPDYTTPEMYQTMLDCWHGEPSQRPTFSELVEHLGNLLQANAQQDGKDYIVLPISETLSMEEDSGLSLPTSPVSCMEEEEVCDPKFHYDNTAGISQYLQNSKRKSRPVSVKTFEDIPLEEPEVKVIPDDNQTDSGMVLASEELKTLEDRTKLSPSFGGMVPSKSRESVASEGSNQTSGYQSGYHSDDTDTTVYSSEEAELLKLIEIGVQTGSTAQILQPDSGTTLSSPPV
Assay: Kinase inhibition, Mobility Shift Assay/IMAP, VEGFR2
Format: biochemical
Set-up: purchased Carna 08-191
measuredEndpoint: IC50 (nM)

Here's what some known entries look like.
> print(dat)
                                   compound          assayedsystem  reportedvalue
1  NC(=O)c1c(OCc2ccc(F)c(C(=O)NC3CC3)c2)nsc1NC(=O)NCCCCN1CCCC1 [Compound T151]  VEGFR2 (Homo sapiens)           1.75
2  COc1ccc(F)c(COc2nsc(NC(=O)NCCCCN3CCC(F)CC3)c2C(N)=O)c1F [Compound T125]  VEGFR2 (Homo sapiens)           13.5
3  CN1CCN(CCCNC(=O)Nc2snc(OCc3ccc(F)c(C(=O)NC4CC4)c3)c2C(N)=O)CC1 [Compound T078]  VEGFR2 (Homo sapiens)           2.09
4  CC(C)(C)OC(=O)N1CCN(CCn2cc(Nc3snc(OCc4c(F)cc(Br)cc4F)c3C(N)=O)cn2)CC1 [Compound T046]  VEGFR2 (Homo sapiens)             62
5  COc1cccc(COc2nsc(NC(=O)NCCCCN3CCCC3)c2C(N)=O)c1OC [Compound T032]  VEGFR2 (Homo sapiens)           56.8

I. CN1CC[C@@H](CCNC(=O)Nc2snc(OCc3cc4c(cc3F)CCO4)c2C(N)=O)C1 [Compound T102]
II. COc1ccc(F)c(COc2nsc(NC(=O)NCCCCN3CCOCC3)c2C(N)=O)c1F [Compound T132]
III. CC(C)(C)OC(=O)CCNC(=O)Nc1snc(OCc2cc(C(=O)NC3CC3)ccc2F)c1C(N)=O [Compound T173]
IV. NC(=O)c1c(OCc2cc(C(=O)NC3CC3)ccc2F)nsc1N [Compound T159]
V. CN1CCC(CCNC(=O)Nc2snc(OCc3cc(C(=O)NC4CC4)ccc3Cl)c2C(N)=O)CC1 [Compound T139]
-- ask Hey, quick one: sort these by IC50, largest value first please. Response field: labels, in requested order.
-- reply IV, II, I, III, V
(IV: 41.7 nM, II: 14.7 nM, I: 5.5 nM, III: 1.97 nM, V: 0.41 nM)

I. NC(=O)c1c(OCc2c(F)ccc(OC(F)F)c2F)nsc1NC(=O)NCCCCN1CCCC1 [Compound T148]
II. Cn1ncc2c(COc3nsc(NC(=O)NCCCCN4CCCC4)c3C(N)=O)cccc21 [Compound T004]
III. NC(=O)c1c(OCc2cc3c(cc2F)CCO3)nsc1NC(=O)NCCN1CCCCC1 [Compound T082]
IV. NC(=O)c1c(OCc2cc(C(=O)NC3CC3)ccc2F)nsc1NC(=O)NCCCO [Compound T170]
V. NC(=O)c1c(OCc2cc3c(cc2F)CCO3)nsc1NC(=O)NCCCCN1CC[C@@H](F)C1 [Compound T079]
-- ask Endpoint returns the given compounds ordered by ascending IC50. Response field: labels, in requested order.
-- reply IV, V, I, III, II
(IV: 1.12 nM, V: 4.47 nM, I: 16 nM, III: 24 nM, II: 163 nM)

P. COc1ccc(F)c(COc2nsc(NC(=O)NCCCCN3CC[C@@H](O)C3)c2C(N)=O)c1F [Compound T114]
Q. COc1ccc(F)c(COc2nsc(NC(=O)NCCCCN3CCC(F)(F)CC3)c2C(N)=O)c1F [Compound T130]
-- ask Decide: P or Q , by lowest recorded IC50. // respond with label for picked entry
-- reply P
